Data origin: paper PMC4399878

- target under test: T1, SgrAI R131A (UniProt Q9F6L0 1-339, R131A)
- T1 sequence: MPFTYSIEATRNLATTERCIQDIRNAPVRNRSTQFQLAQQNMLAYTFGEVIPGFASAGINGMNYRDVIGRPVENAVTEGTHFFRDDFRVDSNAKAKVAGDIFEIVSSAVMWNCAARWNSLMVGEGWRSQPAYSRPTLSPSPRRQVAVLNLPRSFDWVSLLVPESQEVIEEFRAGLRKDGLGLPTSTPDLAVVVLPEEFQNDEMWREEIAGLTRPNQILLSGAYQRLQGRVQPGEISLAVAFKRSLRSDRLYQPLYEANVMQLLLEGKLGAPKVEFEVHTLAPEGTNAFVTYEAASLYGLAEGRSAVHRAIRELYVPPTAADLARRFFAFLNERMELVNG
- protocol: fluorescence anisotropy; 10 mM Ca2+; 20 mM Tris-HOAc pH 8.0 (RT), 50 mM KOAc, 10 mM Ca(OAc)2 (or Mg(OAc)2), 1 mM DTT, 4 C for anisotropy and gel run; 10% glycerol for EMSA and R131A/R134A, none for wild type with 40-mers
- condition label: protein: recombinant; chain copies: 2; label: 5' 32P (S56E, A57E) or 5' fluorescein on top strand (R131A, R134A)
endpoint: Kd (nM)

>>> readout_number("PC DNA (dsDNA) DNA 1: GATGCGTGGGTCTTCACA DNA 2: CCGGTGTGAAGACCCACGCATC")
60
